src = patent US10519446B2

Could you please report measured Percent sAg remaining at maximum knockdown for the items listed next?
tested on: HBV; assay: Efficacy of HBV RNAi agents in HepG2.2.15 cells in vitro (sAg KD); assay type: cell-based, Hepatitis B Virus; settings: Experiment 2; percent residual gene activity; HepG2.2.15 cells

Form field Percent sAg remaining at maximum knockdown, entry 6: "HBV RNAi agents numbered 1 to 10"; "The RNAi agents used are listed in Table 8E" (18-mer format) (sense GGCUGUAGGCAUAAAUUGG; antisense CCAAUUUAUGCCUACAGCC; chemistry not given here) [Number 6] : 61%

Form field Percent sAg remaining at maximum knockdown, entry 5: "One sequence used was designated siHBV_1599_18mer_CAM, and corresponds to Number 5 in Table 8E" (sense CCGUGUGCACUUCGCUUCA; antisense UGAAGCGAAGUGCACACGG; chemistry not given here) : 62.2%

Form field Percent sAg remaining at maximum knockdown, entry 4: "HBV RNAi agents numbered 1 to 10"; "The RNAi agents used are listed in Table 8E" (18-mer format) (sense GAGGCUGUAGGCAUAAAUU; antisense AAUUUAUGCCUACAGCCUC; chemistry not given here) [Number 4] : 51.4%
